# Test system: MDA-MB-231 cells
# Test Name: MTT cytotoxicity assay, MDA-MB-231
# Format: cell-based, human
# Cond: Homo sapiens, MDA-MB-231, 24 h, read-out: IC50 MDA-MB-231
Assay Endpoint: IC50 (µM)

• CCOC(=O)/C=C/c1ccc(OC)c(OC(=O)[C@@]2(C)CC[C@]3(C)CC[C@]4(C)C(=CC(=O)[C@@H]5[C@@]6(C)CC[C@H](OC(=O)[C@@H](N)CC[Se]C)C(C)(C)[C@@H]6CC[C@]54C)[C@@H]3C2)c1 = 3.27
• COC(=O)/C=C/c1cccc(OC(=O)[C@@]2(C)CC[C@]3(C)CC[C@]4(C)C(=CC(=O)[C@@H]5[C@@]6(C)CC[C@H](OC(=O)[C@@H](N)CC[Se]C)C(C)(C)[C@@H]6CC[C@]54C)[C@@H]3C2)c1 = 2.46
• COC(=O)/C=C/c1ccc(OC(=O)[C@@]2(C)CC[C@]3(C)CC[C@]4(C)C(=CC(=O)[C@@H]5[C@@]6(C)CC[C@H](OC(=O)[C@@H](N)CC[Se]C)C(C)(C)[C@@H]6CC[C@]54C)[C@@H]3C2)cc1 = 6.27
• CCOC(=O)/C=C/c1cccc(OC(=O)[C@@]2(C)CC[C@]3(C)CC[C@]4(C)C(=CC(=O)[C@@H]5[C@@]6(C)CC[C@H](OC(=O)[C@@H](N)CC[Se]C)C(C)(C)[C@@H]6CC[C@]54C)[C@@H]3C2)c1 = 1.53

----------
Structures can show the parent of a compound that is named as a salt.
Measured melting point values are reported for all entries that follow.
Assay Endpoint: melting point

• COC(=O)/C=C/c1ccc(OC(=O)[C@@]2(C)CC[C@]3(C)CC[C@]4(C)C(=CC(=O)[C@@H]5[C@@]6(C)CC[C@H](O)C(C)(C)[C@@H]6CC[C@]54C)[C@@H]3C2)cc1 = 202 to 205 °C
• COC(=O)/C=C/c1ccc(OC)c(OC(=O)[C@@]2(C)CC[C@]3(C)CC[C@]4(C)C(=CC(=O)[C@@H]5[C@@]6(C)CC[C@H](OC(=O)[C@@H](N)CC[Se]C)C(C)(C)[C@@H]6CC[C@]54C)[C@@H]3C2)c1 (as salt: hydrochloride) = 201 to 203 °C
• CCOC(=O)/C=C/c1cccc(OC(=O)[C@@]2(C)CC[C@]3(C)CC[C@]4(C)C(=CC(=O)[C@@H]5[C@@]6(C)CC[C@H](OC(=O)[C@@H](N)CCSC)C(C)(C)[C@@H]6CC[C@]54C)[C@@H]3C2)c1 (as salt: hydrochloride) = 183 to 185 °C
• CCOC(=O)/C=C/c1ccc(OC(=O)[C@@]2(C)CC[C@]3(C)CC[C@]4(C)C(=CC(=O)[C@@H]5[C@@]6(C)CC[C@H](OC(=O)[C@@H](N)CC[Se]C)C(C)(C)[C@@H]6CC[C@]54C)[C@@H]3C2)c(OC)c1 (as salt: hydrochloride) = 205 to 207 °C
• CCOC(=O)/C=C/c1ccc(OC(=O)[C@@]2(C)CC[C@]3(C)CC[C@]4(C)C(=CC(=O)[C@@H]5[C@@]6(C)CC[C@H](OC(=O)[C@@H](N)CC[Se]C)C(C)(C)[C@@H]6CC[C@]54C)[C@@H]3C2)cc1 (as salt: hydrochloride) = 208 to 211 °C
• COC(=O)/C=C/c1ccc(OC(=O)[C@@]2(C)CC[C@]3(C)CC[C@]4(C)C(=CC(=O)[C@@H]5[C@@]6(C)CC[C@H](OC(=O)[C@@H](N)CC[Se]C)C(C)(C)[C@@H]6CC[C@]54C)[C@@H]3C2)cc1 (as salt: hydrochloride) = 218 to 221 °C
• CCOC(=O)/C=C/c1ccc(OC(=O)[C@@]2(C)CC[C@]3(C)CC[C@]4(C)C(=CC(=O)[C@@H]5[C@@]6(C)CC[C@H](OC(=O)[C@@H](N)CCSC)C(C)(C)[C@@H]6CC[C@]54C)[C@@H]3C2)cc1 (as salt: hydrochloride) = 202 to 204 °C
• COC(=O)/C=C/c1ccc(OC)c(OC(=O)[C@@]2(C)CC[C@]3(C)CC[C@]4(C)C(=CC(=O)[C@@H]5[C@@]6(C)CC[C@H](O)C(C)(C)[C@@H]6CC[C@]54C)[C@@H]3C2)c1 = 215 to 217 °C

src = paper PMC6274419
